molecular target: T1, human BKB2R-derived epitope peptide (SEQ ID NO:73), PEG-biotin (human, also: PEG-biotin, site not given here); test: BLI (Octet), peptide-PEG-biotin on streptavidin sensor, antibody 500 nM
T1 construct: also called immunogenic human BKB2R peptide fragment
T1 peptide: KEYSDEGHNVTAC
pKd: −log10 of the molar value. Where no end group is shown, it is not given here.

binder	pKd
chimeric/humanized anti-BKB2R antibody L1/HC (antibody, human IgG2, V domains shown, not shown: human IgG2 constant region) VH: EVKLEESGGGLVQPGGSMKLSCVVSGFTFSDYWMSWVRHSPEMGLEWVAEIRLKSDNYATHYAESVKGRFTISRDDSKSRLYLQINSLRGEDTGIYYCTRDYYAMEYWGQGTSVTVSS VL: DIVMTQSPLSLPVTPGEPASISCRSSQTIVHSNGKTYLEWYLQKPGQSPQLLIYKVSNRFSGVPDRFSGSGSGTDFTLKISRVEAEDVGVYYCFQASHVPYTFGQGTKLEIKR	5.40
